These measurements were taken from patent US20220281997A1.

Target: T1, AS675 VHH (camel-derived)
T1 construct: One of the 10 different camel-derived nanobodies; not shown: His tag (VHH-His)
T1 sequence (VHH, as listed by the source): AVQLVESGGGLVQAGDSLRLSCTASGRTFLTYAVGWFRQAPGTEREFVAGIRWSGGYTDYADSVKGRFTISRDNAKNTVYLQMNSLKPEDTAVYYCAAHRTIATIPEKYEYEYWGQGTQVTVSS
Test: indirect ELISA, VHH coated
observationType: binding result

binder	observationType	result
R166.G3 (antibody, V domains shown, Rabbit monoclonal; also called clone R166.G3) VH: QSVEESGGRLVTPGTPLTLTCTVSGIDLSRYAMGWVRQAPGKGLEYIGIIGYGGNTNYANWAKGRFTISKTSSTTVDLKMTSPTTEDTATYFCARDNKSGGNNGYPYYGLDLWGPGTLVTVSS VL: AYDMTQTPASVEVPVGGTVTINCQASQSISSHLAWYQQKRGQPPKVLIYYASTLASGVSSRFKGSGSGTEYTLTISGVECADAATYFCHQSYSGSDVDNTFGGGTEVVVRG	binding result	binds
R166.G8 (antibody, V domains shown, Rabbit monoclonal; also called clone R166.G8) VH: LEQSGGGAEGGLVKPGGSLELCCKASGFSLSNIYWICWVRQAPGTGLEWIGCINSGSNSYTYYANWVDGRFTLSRDIDQSTGCLQLNSLTAADTAMYYCARDRDAADTSDWSLNFWGQGTLVTVSS VL: QVLTQTPSSVSAAVGGTVTISCQSSDSVNNDNWLAWYQQKPGQPPKLLIYQASKLASGVPSRFSGSGSGTQFTLTISGVQCDDAANYYCQGTGYSSTWYVAFGGGTEVVVKG	binding result	binds
R166.F2 (antibody, V domains shown, Rabbit monoclonal; also called clone R166.F2) VH: QSVEESGGRLVTPGTPLTLTCTASGFTISSHDMSWVRQAPGKGLEWIGYIYYGSGSTDYASWAEGRFTITRNTNENTVTLKMTSLTTEDTATYFCARGGYVGGGVDAFDPWGPGTVVTVSS VL: AYDMTQTPASVEVAVGGTVTIKCQASQSIYTYLSWYQQKPGQPPKLLIYRASTLASGVSSRFKGSGSGTDFTLTISGAQCADAATYYCQQGALSSNIHNTFGGGTEVVVKG	binding result	binds
